Task for the reader: assign each of the following molecules its reported IC50.
Study System: Poly [ADP-ribose] polymerase 1 (Homo sapiens, UniProt P09874)
Sequence (P09874 whole entry): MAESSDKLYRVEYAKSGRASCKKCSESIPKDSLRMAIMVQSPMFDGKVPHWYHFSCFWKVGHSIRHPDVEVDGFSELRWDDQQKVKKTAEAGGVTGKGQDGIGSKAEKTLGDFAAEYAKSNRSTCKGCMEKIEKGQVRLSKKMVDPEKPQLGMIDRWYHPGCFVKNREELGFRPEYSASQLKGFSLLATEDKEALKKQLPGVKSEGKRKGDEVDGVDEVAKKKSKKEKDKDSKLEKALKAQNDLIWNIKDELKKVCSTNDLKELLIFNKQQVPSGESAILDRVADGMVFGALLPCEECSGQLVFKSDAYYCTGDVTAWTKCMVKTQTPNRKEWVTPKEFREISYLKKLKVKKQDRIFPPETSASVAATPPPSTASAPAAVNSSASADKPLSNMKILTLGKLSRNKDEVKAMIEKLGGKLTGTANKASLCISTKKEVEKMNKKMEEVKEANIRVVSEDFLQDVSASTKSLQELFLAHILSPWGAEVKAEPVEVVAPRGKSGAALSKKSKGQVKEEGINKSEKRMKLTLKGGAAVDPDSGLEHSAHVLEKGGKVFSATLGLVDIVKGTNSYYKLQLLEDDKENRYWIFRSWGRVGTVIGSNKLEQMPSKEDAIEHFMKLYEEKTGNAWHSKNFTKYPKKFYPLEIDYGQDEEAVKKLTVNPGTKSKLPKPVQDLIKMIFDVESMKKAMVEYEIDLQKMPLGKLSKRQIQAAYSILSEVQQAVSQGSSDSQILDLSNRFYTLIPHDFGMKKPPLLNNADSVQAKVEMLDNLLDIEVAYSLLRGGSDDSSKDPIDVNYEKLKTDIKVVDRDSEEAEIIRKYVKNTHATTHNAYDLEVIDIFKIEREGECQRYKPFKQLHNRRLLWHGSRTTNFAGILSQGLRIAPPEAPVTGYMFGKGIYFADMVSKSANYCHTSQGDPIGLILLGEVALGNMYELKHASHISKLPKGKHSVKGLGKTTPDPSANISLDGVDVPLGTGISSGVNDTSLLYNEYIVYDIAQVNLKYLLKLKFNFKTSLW
Method: In vitro inhibitory concentration against human recombinant Poly (ADP-ribose) polymerase 1
Quick note: number first, unit second.

Reported IC50 for O=c1[nH]c(CCCN2CC=C(c3ccc(C(F)(F)F)cc3)CC2)nc2ccccc12 was 25 nM

molecule Oc1nc(CCCN2CC=C(c3ccccc3)CC2)nc2cc(Cl)ccc12 , IC50 observed: 250 nM

// N#Cc1ccc(C2=CCN(CCCc3nc(O)c4ccccc4n3)CC2)cc1 : IC50 value = 6 nM

Entry O=c1[nH]c(CCCN2CC=C(c3ccc(O)cc3)CC2)nc2ccccc12 — recorded IC50 = 12 nM
